# Tested on: L1210 leukemia ip in BDF1 mice, survival T/C
# ASSAY_SUMMARY: NCI In Vivo Anticancer Drug Screen. Data for tumor model L1210 Leukemia (intraperitoneal) in B6D2F1 (BDF1) mice
# CONDITIONS: endpoint: mean survival time; dose: 50.0 mg/kg/injection; schedule: Q01DX009 (ip); vehicle: saline with Tween-80; higher = longer survival
Toxic doses and inconclusive results are not listed.
MEASUREMENT_TYPE: T/C

Examples from the recorded data:
INSERT INTO assay_data (compound, reported_measurement) VALUES
  ('CCCNC(=O)Oc1cccc(NC(=O)CC)c1', '100 % of control'),
  ('CCNC(C)CC(C)C (stereo not drawn)', '92 % of control'),
  ('O=C(/C=C/c1ccccc1)c1ccc(Cl)c(Cl)c1', '101 % of control'),
  ('CC(=O)COCC1CO1 (stereo not drawn)', '92 % of control'),
  ('CS(=O)(=O)c1nnc(-c2ccccc2)s1', '93 % of control'),
  ('OCCOc1c(Cl)cc(Cl)cc1Cl', '100 % of control');

Qu. What value of T/C has been reported for the following compound? CC(=O)OCC(=O)[C@@]1(O)CC[C@H]2[C@@H]3CCC4=CC(=O)C=C[C@]4(C)[C@@]3(F)[C@@H](O)C[C@@]21C
Ans. 96 % of control

Qu. Can you handle CC(C)C1CCC(NC(=O)Nc2ccccc2)CC1 (stereo not drawn) next?
Ans. 95 % of control

Qu. Can you handle COC12CCCC1S(=O)(=O)C2 (stereo not drawn) next?
Ans. 98 % of control

Qu. Can you handle O=C1OC(Cc2ccccc2)(c2ccccc2)c2ccccc21 (stereo not drawn) next?
Ans. 90 % of control

---

# Tested on: L1210 leukemia ip in BDF1 mice, survival T/C
# ASSAY_SUMMARY: NCI In Vivo Anticancer Drug Screen. Data for tumor model L1210 Leukemia (intraperitoneal) in B6D2F1 (BDF1) mice
# CONDITIONS: endpoint: mean survival time; dose: 150.0 mg/kg/injection; schedule: Q01DX001 (ip); vehicle: saline; higher = longer survival
Inconclusive results and toxic doses are left out.
MEASUREMENT_TYPE: T/C

INSERT INTO assay_data (molecule, measurement_target, reported_measurement) VALUES
  ('CC1C(=O)OC2C1CCC1(C)C3(C)C(=O)C=CC213 (configuration not stated)', 'L1210 leukemia ip in BDF1 mice, survival T/C', '106 % of control'),
  ('CCCCC=C(C1CCCCC1)C1CCCCC1', 'L1210 leukemia ip in BDF1 mice, survival T/C', '93 % of control'),
  ('CCCC[n+]1cc(C(N)=O)cc2ccccc21', 'L1210 leukemia ip in BDF1 mice, survival T/C', '95 % of control'),
  ('CN(CCC(C#N)(CCC#N)c1ccccc1)Cc1ccccc1 (configuration not stated)', 'L1210 leukemia ip in BDF1 mice, survival T/C', '102 % of control'),
  ('Cc1csc[n+]1C', 'L1210 leukemia ip in BDF1 mice, survival T/C', '102 % of control');

Qu. What value of T/C has been reported for the following molecule? CC(=O)OC1CC(C)(C)CC(OC(C)=O)C1(C)C (configuration not stated)
Ans. 111 % of control

Qu. Can you handle O=S(=O)(OCCNc1ccccc1)c1ccccc1 next?
Ans. 98 % of control
